Test Method Notes: qHTS Assay for Foot and Mouth Disease Virus Antivirals: Primary Screen against the MLPCN compound library; also: nearly all actives have a fitted effect of over 55% in size
Experimental Setup: FMDV antiviral cell-based qHTS; series mostly up to 57.9 µM
Screen size: about 410,000 compounds; about 2,000 (0.49%) were called active. Not shown: some 8% with an inconclusive outcome. Calls follow the shape of the full dose curve; tested in HEK293 reporter line. The list comes from a sample in which actives are over-represented; it also holds close analogues and randomly drawn compounds.
Write down the outcome that applies. Available outcomes: t (active), f (inactive)

| Compound | Category Label |
| --- | --- |
| Cc1[nH]c2ccccc2c1C(=O)CN1C(=O)C(=O)N(CCC2=CCCCC2)C1=O | f |
| Cc1ccccc1C(c1c(C)n(C)n(-c2ccccc2)c1=O)c1c(C)n(C)n(-c2ccccc2)c1=O | f |
| C=CCOc1ccc(/C=C2/C(=O)ON=C2C)cc1OCC | t |
| COc1ccc(C(=O)c2cn(Cc3ccccc3)c3ccccc3c2=O)cc1OC | f |
| Cc1ccccc1-c1cnc2c(c1)C(=O)N([C@@H](C)CO)C[C@@H](C)[C@H](CN(C)Cc1ccccc1F)O2 | f |

Dear all, I need the recorded test outcome for O=C(Nc1nc2ccccc2s1)c1ccc2c(c1)OCO2 , thank you. t

Dear all, I need the recorded test outcome for Cc1ccc(S(=O)(=O)N/N=C/c2ccc(OCC(=O)N3CCOCC3)cc2)cc1 , thank you. f

Dear all, I need the recorded test outcome for CN(C)Cc1n[nH]c(=O)c2ccccc12 , thank you. f

Dear all, I need the recorded test outcome for COc1cc(/C=C2/C(=O)ON=C2c2ccccc2)ccc1O , thank you. f

Dear all, I need the recorded test outcome for CC(C)(C)NC(=O)NC(=O)CN1CCN(C(c2ccccc2)c2ccccc2)CC1 , thank you. f

Entry source: PubChem BioAssay AID1347131
